system: HIV-1 protease (Human immunodeficiency virus type 1 group M subtype B)
assay_explanation: Fluorogenic Assay for Screening Inhibitors of HIV Protease
measurement_parameters: pH 4.5
Kindly supply the reported inhibition at 0.0005 µM values for the records listed here.
Numeric only. Scale: %

q: Given the entry Cc1cccc(C)c1OCC(=O)N[C@@H](Cc1ccccc1)[C@@H](O)C[C@H](Cc1ccccc1)NC(=O)O[C@@H]1CCSC1(C)C [Example 32] , report its measured inhibition at 0.0005 µM.
a: 50

q: For Cc1ncnc(C)c1OCC(=O)N[C@@H](Cc1ccccc1)C[C@H](O)[C@H](Cc1ccccc1)NC(=O)O[C@H]1CO[C@H]2OCC[C@H]21 [Example 8] then?
a: 56

q: Same question, CC(C)c1nc(CN(C)C(=O)N[C@H](C(=O)N[C@@H](Cc2ccccc2)C[C@H](O)[C@H](Cc2ccccc2)NC(=O)O[C@@H]2CO[C@@H]3OCC[C@@H]32)C(C)C)cs1 [Example 48] this time
a: 80

* * *

assay_explanation: Cytotoxicity in uninfected MT4 cells (MTT)
Type: cell-based
measurement_parameters: human, 5 days, n=four duplicate determinations, read-out: CTC50 (50% cytotoxicity concentration)
# note: exactly 50 µM is not below, so it is NO; use YES for CC50 at 120 h strictly under it

q: Here's an entry: O=C(N[C@@H](Cc1ccccc1)[C@@H](O)C[C@H](Cc1ccccc1)NC(=O)c1cccc(O)c1)O[C@@H]1CO[C@@H]2OCC[C@@H]21 . Is its CC50 at 120 h below 50 µM?
a: NO

q: Record: O=C(N[C@@H](Cc1ccccc1)C[C@H](O)[C@H](Cc1ccccc1)NC(=O)O[C@@H]1CO[C@@H]2OCC[C@@H]21)O[C@H]1CO[C@H]2OCC[C@H]21
a: NO

q: Here is the next compound: CC(C)c1nc(CN(C)C(=O)N[C@@H](C(=O)N[C@@H](Cc2ccccc2)C[C@H](O)[C@H](Cc2ccccc2)NC(=O)OC2COC3OCCC23)C(C)C)cs1 (stereo partly shown)
a: NO

q: Ok, now Cc1cccc(C)c1OCC(=O)N[C@@H](Cc1ccccc1)C[C@H](O)[C@H](Cc1ccccc1)NC(=O)O[C@H]1CO[C@H]2OCC[C@H]21
a: NO

q: Check CC(C)c1nc(CN(C)C(=O)N[C@H](C(=O)N[C@@H](Cc2ccccc2)[C@@H](O)C[C@H](Cc2ccccc2)NC(=O)O[C@H]2CO[C@H]3OCC[C@H]32)C(C)C)cs1 too.
a: NO

q: Now give it for Cc1nc(CN(C)C(=O)N[C@H](C(=O)N[C@@H](Cc2ccccc2)C[C@H](O)[C@H](Cc2ccccc2)NC(=O)O[C@@H]2CO[C@@H]3OCC[C@@H]32)C(C)C)cs1 too.
a: NO

q: Proceed to CC(C)[C@H](NC(=O)N(C)Cc1cncs1)C(=O)N[C@@H](Cc1ccccc1)C[C@H](O)[C@H](Cc1ccccc1)NC(=O)O[C@H]1CO[C@H]2OCC[C@H]21
a: NO

q: Next compound up: Cc1cccc(C)c1NCC(=O)N[C@@H](Cc1ccccc1)[C@@H](O)C[C@H](Cc1ccccc1)NC(=O)O[C@H]1CO[C@H]2OCC[C@H]21
a: NO

q: Do the same for Cc1cc(C)c(OCC(=O)N[C@@H](Cc2ccccc2)C[C@H](O)[C@H](Cc2ccccc2)NC(=O)O[C@H]2CO[C@H]3OCC[C@H]32)c(C)c1 please
a: YES

q: Another compound to check: Cc1cc2[nH]cnc2c(C)c1OCC(=O)N[C@@H](Cc1ccccc1)C[C@H](O)[C@H](Cc1ccccc1)NC(=O)O[C@H]1CO[C@H]2OCC[C@H]21
a: NO

q: Then Cc1cccc(C)c1OCC(=O)N[C@@H](Cc1ccccc1)[C@@H](O)C[C@H](Cc1ccccc1)NC(=O)OC1CCSC1 (mixture of isomers) ?
a: YES

q: Repeat with Cc1cc(N(C)C)cc(C)c1OCC(=O)N[C@@H](Cc1ccccc1)C[C@H](O)[C@H](Cc1ccccc1)NC(=O)O[C@H]1CO[C@H]2OCC[C@H]21
a: YES

q: Next record, please: O=C(N[C@@H](Cc1ccccc1)C[C@H](O)[C@H](Cc1ccccc1)NC(=O)OC1COC2OCCC12)OCc1cncs1 (stereo partly shown)
a: NO

q: Repeat with Cc1cc(F)cc(C)c1OCC(=O)N[C@@H](Cc1ccccc1)C[C@H](O)[C@H](Cc1ccccc1)NC(=O)O[C@H]1CO[C@H]2OCC[C@H]21
a: NO

q: Now the same for Cc1cc(C)c(OCC(=O)N[C@@H](Cc2ccccc2)C[C@H](O)[C@H](Cc2ccccc2)NC(=O)O[C@H]2CO[C@H]3OCC[C@H]32)c(C)c1N
a: YES

q: Next record, please: CC(C)c1nc(CN(C)C(=O)N[C@H](C(=O)N[C@@H](Cc2ccccc2)C[C@H](O)[C@H](Cc2ccccc2)NC(=O)O[C@@H]2CO[C@@H]3OCC[C@@H]32)C(C)C)cs1
a: YES

q: What about CC(=O)Oc1ccc(C(=O)N[C@@H](Cc2ccccc2)C[C@H](O)[C@H](Cc2ccccc2)NC(=O)O[C@H]2CO[C@H]3OCC[C@H]32)cc1 ?
a: NO

q: And the next one, O=C(N[C@@H](Cc1ccccc1)[C@@H](O)C[C@H](Cc1ccccc1)NC(=O)OC1COC2OCCC12)OCc1cncs1 (stereo partly shown) ?
a: NO

q: What do we get for Nc1ccc(Cl)c(C(=O)N[C@@H](Cc2ccccc2)[C@@H](O)C[C@H](Cc2ccccc2)NC(=O)O[C@@H]2CO[C@@H]3OCC[C@@H]32)c1 ?
a: NO

q: Try this compound too: Nc1ccc(C(=O)N[C@@H](Cc2ccccc2)[C@@H](O)C[C@H](Cc2ccccc2)NC(=O)O[C@H]2CO[C@H]3OCC[C@H]32)c(Cl)c1
a: NO

* * *

system: HIV-1 protease (Human immunodeficiency virus type 1 group M subtype B, UniProt P04585)
assay_explanation: Fluorogenic Assay for Screening Inhibitors of HIV Protease
measurement_parameters: pH 4.5
endpoint_label: inhibition at 0.0005 µM
Put down the number, then write its unit next to it.

q: What measured inhibition at 0.0005 µM goes with Cc1cc(N)cc(C)c1OCC(=O)N[C@@H](Cc1ccccc1)C[C@H](O)[C@H](Cc1ccccc1)NC(=O)O[C@@H]1CO[C@@H]2OCC[C@@H]21 ?
a: 60%

q: Please do the same for Cc1nc(CN(C)C(=O)N[C@H](C(=O)N[C@@H](Cc2ccccc2)C[C@H](O)[C@H](Cc2ccccc2)NC(=O)OC2COC3OCCC23)C(C)C)cs1 (stereo partly drawn) as well.
a: 69%

q: Moving on to the next compound: Cc1cccc(C)c1OCC(=O)N[C@@H](Cc1ccccc1)[C@@H](O)C[C@H](Cc1ccccc1)NC(=O)O[C@H]1CO[C@H]2OCC[C@H]21
a: 91%

q: Then this compound: Cc1nc(CN(C)C(=O)N[C@H](C(=O)N[C@@H](Cc2ccccc2)C[C@H](O)[C@H](Cc2ccccc2)NC(=O)O[C@@H]2CO[C@@H]3OCC[C@@H]32)C(C)C)cs1
a: 82%

q: Another compound to look at: CC(C)c1nc(CN(C)C(=O)NC(C(=O)NC(Cc2ccccc2)CC(O)C(Cc2ccccc2)NC(=O)OC2COC3OCCC23)C(C)C)cs1 (stereo not drawn)
a: 83%

q: Item: Nc1ccc(C(=O)N[C@@H](Cc2ccccc2)[C@@H](O)C[C@H](Cc2ccccc2)NC(=O)O[C@H]2CO[C@H]3OCC[C@H]32)c(Cl)c1
a: 72%

q: Can you check CC(C)c1nc(COC(=O)N[C@@H](C(=O)N[C@@H](Cc2ccccc2)C[C@H](O)[C@H](Cc2ccccc2)NC(=O)OC2COC3OCCC23)C(C)C)cs1 (stereo partly drawn) next?
a: 66%

q: And what about the compound O=C(N[C@@H](Cc1ccccc1)[C@@H](O)C[C@H](Cc1ccccc1)NC(=O)O[C@@H]1CO[C@@H]2OCC[C@@H]21)O[C@H]1CO[C@H]2OCC[C@H]21 ?
a: 73%

q: Next compound up: Cc1cc(N)cc(C)c1OCC(=O)N[C@@H](Cc1ccccc1)[C@@H](O)C[C@H](Cc1ccccc1)NC(=O)O[C@H]1CO[C@H]2OCC[C@H]21
a: 91%

q: Also check O=C(N[C@@H](Cc1ccccc1)C[C@H](O)[C@H](Cc1ccccc1)NC(=O)O[C@@H]1CO[C@@H]2OCC[C@@H]21)O[C@H]1CO[C@H]2OCC[C@H]21
a: 39%

q: Can you check CC(C)c1nc(CN(C)C(=O)N[C@H](C(=O)N[C@@H](Cc2ccccc2)C[C@H](O)[C@H](Cc2ccccc2)NC(=O)O[C@H]2CCOC2)C(C)C)cs1 next?
a: 68%

q: Also Cc1cc(F)cc(C)c1OCC(=O)N[C@@H](Cc1ccccc1)C[C@H](O)[C@H](Cc1ccccc1)NC(=O)O[C@H]1CO[C@H]2OCC[C@H]21 ?
a: 69%

q: Could you do the same for Cc1cc(N(C)C)cc(C)c1OCC(=O)N[C@@H](Cc1ccccc1)C[C@H](O)[C@H](Cc1ccccc1)NC(=O)O[C@H]1CO[C@H]2OCC[C@H]21 , please?
a: 43%

q: Cool, now Cc1ccc(N)c(C)c1OCC(=O)N[C@@H](Cc1ccccc1)C[C@H](O)[C@H](Cc1ccccc1)NC(=O)O[C@H]1CO[C@H]2OCC[C@H]21
a: 87%

q: Note, next up: Cc1cc2ncoc2c(C)c1OCC(=O)N[C@@H](Cc1ccccc1)C[C@H](O)[C@H](Cc1ccccc1)NC(=O)O[C@H]1CO[C@H]2OCC[C@H]21
a: 80%

q: # iterate: CC(C)[C@@H](NC(=O)OCc1cncs1)C(=O)N[C@@H](Cc1ccccc1)C[C@H](O)[C@H](Cc1ccccc1)NC(=O)O[C@H]1CO[C@H]2OCC[C@H]21
a: 42%

q: Further, for Cc1cccc(C)c1NCC(=O)N[C@@H](Cc1ccccc1)[C@@H](O)C[C@H](Cc1ccccc1)NC(=O)O[C@H]1CO[C@H]2OCC[C@H]21 ?
a: 69%

q: Entry Cc1cc(C)c(OCC(=O)N[C@@H](Cc2ccccc2)C[C@H](O)[C@H](Cc2ccccc2)NC(=O)O[C@H]2CO[C@H]3OCC[C@H]32)c(C)c1 please
a: 82%
